This collection of values is drawn from patent US5565566A.

Reported Ki is given for each of the following compounds.
- target: A1 receptors (Rattus norvegicus, UniProt P25099)
- Sequence (P25099 1-326): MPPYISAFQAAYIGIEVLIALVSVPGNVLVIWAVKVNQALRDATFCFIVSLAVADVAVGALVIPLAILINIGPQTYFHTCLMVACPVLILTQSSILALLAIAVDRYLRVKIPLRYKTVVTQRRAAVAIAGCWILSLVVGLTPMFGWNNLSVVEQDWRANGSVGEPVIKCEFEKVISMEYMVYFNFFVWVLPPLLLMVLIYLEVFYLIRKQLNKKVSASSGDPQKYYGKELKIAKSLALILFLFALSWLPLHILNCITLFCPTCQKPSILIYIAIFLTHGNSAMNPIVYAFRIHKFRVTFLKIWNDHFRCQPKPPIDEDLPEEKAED
- assay method text: inhibition of binding of [3H]-phenylisopropyladenosine in rat brain membranes (D)
- Design: Rat Brain Membranes; from tissue; host or cells: rat brain (membranes)
property label: Ki (µM)

- compound: "C[C@@H](Cc1ccccc1)Nc1ncnc2c1ncn2C"
  property label: "Ki"
  result operator: "="
  result number: 10
- compound: "Cn1cnc2c(N)ncnc21 [9-Methyladenine (9-MA), 9-Methyladenine, reference compound]"
  property label: "Ki"
  result operator: "="
  result number: 106
- compound: "C[C@H](Cc1ccccc1)Nc1ncnc2c1ncn2C"
  property label: "Ki"
  result operator: "="
  result number: 2.5
- compound: "Nc1ncnc2nc[nH]c12 [Adenine, reference compound]"
  property label: "Ki"
  result operator: ">"
  result number: 100
- compound: "CNc1ncnc2c1ncn2C"
  property label: "Ki"
  result operator: ">"
  result number: 100

----------
Measured Kb of individual entries
- target: A1 receptors (Rattus norvegicus, UniProt P25099)
- assay method text: prevention of R-PIA-induced inhibition of adenylate cyclase in rat fat cell membranes (C)
- Type: biochemical
- Set-up: from tissue
- condition parameters: (C) Rat Fat Cell Membranes; A1 Effects; read-out: KB vs PIA INHIBITION (Adenylate Cyclase)

- mol smiles: "Cn1cnc2c(NCCc3ccccc3)ncnc21"
  u: "µM"
  result operator: ">"
  Kb: 300
- mol smiles: "Cn1cnc2c(Nc3ccccc3)ncnc21"
  u: "µM"
  result operator: "="
  Kb: 10
- mol smiles: "Cn1cnc2c(Nc3ccccc3F)ncnc21"
  u: "µM"
  result operator: "="
  Kb: 17
- mol smiles: "Cn1cnc2c(NC3CCCC3)ncnc21"
  u: "µM"
  result operator: "="
  Kb: 1.3
- mol smiles: "Cn1cnc2c(NC3CCC3)ncnc21"
  u: "µM"
  result operator: "="
  Kb: 0.89
- mol smiles: "COc1cc(CCNc2ncnc3c2ncn3C)cc(OC)c1OC"
  u: "µM"
  result operator: "="
  Kb: 122

----------
- target: A1 receptors (Rattus norvegicus, UniProt P25099)
- assay method text: prevention of R-PIA-induced inhibition of adenylate cyclase in rat fat cell membranes (C)
- Type: biochemical
- Set-up: from tissue
- condition parameters: (C) Rat Fat Cell Membranes; A1 Effects; read-out: KB vs PIA INHIBITION (Adenylate Cyclase)
property label: log10 Kb (log10 of the value in µM)

- mol smiles: "Cn1cnc2c(NC3CCCCC3)ncnc21"
  log10 Kb: -0.19
- mol smiles: "Cn1cnc2c(NCCc3ccsc3)ncnc21"
  log10 Kb: 1.38
- mol smiles: "Cn1cnc2c(NCc3ccccc3)ncnc21"
  log10 Kb: 1.69
- mol smiles: "Cn1cnc2c(NCCc3cccnc3)ncnc21"
  log10 Kb: 1.98
- mol smiles: "CCC(CC)Nc1ncnc2c1ncn2C"
  log10 Kb: 0.88
